Origin of values: the supplement of paper PMC7695840

- System: Staphylococcus aureus MW2 (mecA+)
- PROTOCOL: IC50 (growth, competition assay)
- EXPERIMENTAL_CONTEXT: fluorescent label: DsRed; cefoxitin: subinhibitory
pIC50: −log10 of the molar value.
pIC50 reference

Examples with answers:
# MOLECULE, ASSAY_SYSTEM, RESULT
rows = [
    ("CCn1nc(C(=O)O)c(=O)c2cc3c(cc21)OCO3", "Staphylococcus aureus MW2 (mecA+)", "< 3.82"),
    ("CC1CCc2cc(F)cc3c(=O)c(C(=O)O)cn1c23 (configuration not stated)", "Staphylococcus aureus MW2 (mecA+)", "> 5.01"),
    ("O=C(O[C@@H]1Cc2c(O)cc(O)cc2O[C@@H]1c1cc(O)c(=O)c2c(O)c(O)cc([C@H]3Oc4cc(O)cc(O)c4C[C@H]3OC(=O)c3cc(O)c(O)c(O)c3)c2c1)c1cc(O)c(O)c(O)c1 [THEAFLAVIN DIGALLATE]", "Staphylococcus aureus MW2 (mecA+)", "< 3.82"),
]

Proceeding to the next molecule to report its pIC50.
pIC50 for `CCc1oc2ccccc2c1C(=O)c1cc(Br)c(O)c(Br)c1` is > 5.01
